Assay: Plasma pharmacokinetics of BN201 in rats (LC-MS/MS, WinNonlin)
Format: in vivo, Sprague Dawley Rat
Conditions: male, Sprague Dawley, plasma; rat, IV infusion 25 mg/Kg over 2 h once daily, 7 doses, Mean ± SEM
Procedure: […] • Group 1 and 2 served as sham and pathological control respectively and only saline was administered • Test compound was delivered once at various doses (as mentioned above) through IP or IV infusion in the respective groups. […] Observation and Readouts 9.1 Body weight […]
Result Type: MRT inf (h)
Just the number please, in h, no unit attached.

[in] Name the reported MRT inf value associated with the compound "CC(C)CN(CC(=O)N(CCCN1CCCC1=O)CC(N)=O)C(=O)CNCCc1ccccc1F"
[out] 3

====

assay: Plasma pharmacokinetics of BN201 in rats (LC-MS/MS, WinNonlin); type: in vivo, Sprague Dawley Rat; conditions: male, Sprague Dawley; rat plasma, IP 25 mg/Kg once daily, 7 doses, Mean ± SEM
Result Type: half-life (h)
Just the number please, in h, no unit attached.

[in] Name the reported half-life value associated with the compound "CC(C)CN(CC(=O)N(CCCN1CCCC1=O)CC(N)=O)C(=O)CNCCc1ccccc1F"
[out] 5.8

====

test: Plasma pharmacokinetics of BN201 in rats (LC-MS/MS, WinNonlin); type: in vivo, Sprague Dawley Rat; details: male, Sprague Dawley; rat plasma, IP 25 mg/Kg once daily, 7 doses, Mean ± SEM
Result Type: AUC(0-inf) (ng·h/mL)
Just the number please, in ng·h/mL, no unit attached.

[in] Name the reported AUC(0-inf) value associated with the molecule CC(C)CN(CC(=O)N(CCCN1CCCC1=O)CC(N)=O)C(=O)CNCCc1ccccc1F [BN201]
[out] 14700

====

experiment: Phase 1 trial in healthy volunteers (pharmacokinetics); format: in vivo; conditions: human, in vivo, humans
Result Type: half-life

[in] Name the reported half-life value associated with the compound "CC(C)CN(CC(=O)N(CCCN1CCCC1=O)CC(N)=O)C(=O)CNCCc1ccccc1F"
[out] ≤ 8 h

====

test: Plasma pharmacokinetics of BN201 in rats (LC-MS/MS, WinNonlin); type: in vivo, Sprague Dawley Rat; conditions: male, Sprague Dawley; rat plasma, IP 10 mg/Kg once daily, 7 doses, Mean ± SEM
Result Type: Tmax (min)
Just the number please, in min, no unit attached.

[in] Name the reported Tmax value associated with the compound CC(C)CN(CC(=O)N(CCCN1CCCC1=O)CC(N)=O)C(=O)CNCCc1ccccc1F [BN201]
[out] 18

====

assay: Plasma pharmacokinetics of BN201 in rats (LC-MS/MS, WinNonlin); format: in vivo, Sprague Dawley Rat; settings: male, Sprague Dawley; rat plasma, IP 70 mg/Kg once daily, 7 doses, Mean ± SEM
Result Type: AUC(0-t) (ng·h/mL)
Just the number please, in ng·h/mL, no unit attached.

[in] Name the reported AUC(0-t) value associated with the molecule "CC(C)CN(CC(=O)N(CCCN1CCCC1=O)CC(N)=O)C(=O)CNCCc1ccccc1F"
[out] 62400

====

assay: Plasma pharmacokinetics of BN201 in rats (LC-MS/MS, WinNonlin); assay type: in vivo, Sprague Dawley Rat; conditions: male, Sprague Dawley; rat plasma, IV infusion 25 mg/Kg over 2 h once daily, 7 doses, Mean ± SEM
Result Type: Cmax (ng/mL)
Just the number please, in ng/mL, no unit attached.

[in] Name the reported Cmax value associated with the compound "CC(C)CN(CC(=O)N(CCCN1CCCC1=O)CC(N)=O)C(=O)CNCCc1ccccc1F"
[out] 10400
